List of yeast fitness values.
B1: tRNA (parent)
chain: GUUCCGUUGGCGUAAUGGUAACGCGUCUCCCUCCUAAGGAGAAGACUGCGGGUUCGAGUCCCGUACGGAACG

# Variants of: B1
# TEST NAME: yeast fitness relative to wild type (ratio to wild type); higher = fitter; tRNA-Arg(CCU), competitive growth, 37 C, YPD
Fewer inactive variants are shown than the library holds.

VARIANT STRING	yeast fitness
A15U U19G C27A U28A	0.578
C11U A21G A70C	0.818
C30A G63A U64C	0.893
U3G C11U	0.748
G44C	0.985
G6A G39C	0.821
U8A C22U A69C A70C	0.595
C27U U28G A40C C46A C49U A70U	0.695
A21C G44C	0.627
C11U A43G A57U	0.568
C5G A40U	0.876
C11G G17A C24U C29G	0.6
U3G C66A	0.591
C22U C33U	0.717
U16C C30G	0.708
C27G G67U	0.632
A42U G58A	0.939
G9A C22A A57G	0.628
U32C A36G G63A	0.628

Data origin, for the record: the RNAGym collection of RNA variant scans (doi:10.1126/science.aae0568)
